test system: Fasciola hepatica aged 6 weeks resistant to salicylanilides (closantel), susceptible to the other drug families used; test: Controlled test in sheep: efficacy against immature F. hepatica, salicylanilide-resistant strain; format: in vivo; details: 5.0 mg/kg intraruminal

compound: CCCSc1ccc2nc(NC(=O)OC)[nH]c2c1
Mean No. of Fluke (SD): 52.7 (6.9)
--
compound: COC(=O)Nc1nc2ccc(Sc3ccccc3)cc2[nH]1
Mean No. of Fluke (SD): 71.0 (8.0)
--
compound: Cc1cc(C(C#N)c2ccc(Cl)cc2)c(Cl)cc1NC(=O)c1cc(I)cc(I)c1O (centres unmarked)
Mean No. of Fluke (SD): 62.0 (17.1)
--
compound: COC(=O)Nc1nc2cc(OS(=O)(=O)c3ccc(F)cc3)ccc2[nH]1
Mean No. of Fluke (SD): 51.7 (25.3)
--
compound: COC(=O)Nc1nc2ccc([S+]([O-])c3ccccc3)cc2[nH]1 (centres unmarked)
Mean No. of Fluke (SD): 74.5 (14.8)
